system: HEK-293T; assay: Multiplex assay against HEK293T; type: toxicity, cell-based; conditions: human, 24 h, 10 µM, compound concentration 10 uM, replicate 1
Examples of compounds with documented Population Pyknosed Nuclei (%) follow.
Entry rule: numbers only, all in %.

Case `COc1ccc(-c2ccc3ncc4c(c3c2)n(-c2ccc(N3CCNCC3)c(C(F)(F)F)c2)c(=O)n4C)cn1.O=C(O)/C=C\C(=O)O` , HEK-293T, Population Pyknosed Nuclei (%) recorded as 61

====

system: Fibroblast; assay: Multiplex assay against human fibroblast; format: toxicity, cell-based; conditions: 48 h, 10 µM, compound concentration 10 uM, replicate 1
Examples of compounds with documented Population Hoechst High Intensity Objects (%) follow.
Entry rule: numbers only, all in %.

Example results:
COMPOUND: O=c1cc(N2CCOCC2)oc2c(-c3cccc4c3sc3ccccc34)cccc12
UNIT LABEL: %
REPORTED VALUE: 12
//
COMPOUND: CC(C)NC(=O)N1CC[C@H](NC2=Nc3cc(F)ccc3N(CC(F)F)c3ccc(Cl)cc32)C1
UNIT LABEL: %
REPORTED VALUE: 20
//
COMPOUND: CC(C)(C)NC[C@H](O)COc1nsnc1N1CCOCC1
UNIT LABEL: %
REPORTED VALUE: 16
//
COMPOUND: CCc1nn(CCCN2CCN(c3cccc(Cl)c3)CC2)c(=O)n1CCOc1ccccc1.Cl [NEFAZODONE HYDROCHLORIDE]
UNIT LABEL: %
REPORTED VALUE: 34

Case Cc1cccc(CN2CCN(C(c3ccccc3)c3ccc(Cl)cc3)CC2)c1.Cl.Cl (centres undefined) , Fibroblast, Population Hoechst High Intensity Objects (%) recorded as 12

Case Cc1ccc2c(c1)c1c(n2CCc2ccc(C)nc2)CCN(C)C1 [LATREPIRDINE] , Fibroblast, Population Hoechst High Intensity Objects (%) recorded as 31

Case O=C(c1cc2c(cc1F)OC(c1ccc(F)cc1)(c1ccc(Cl)cc1Cl)O2)N1CCOCC1 (centres undefined) , Fibroblast, Population Hoechst High Intensity Objects (%) recorded as 14

Case `COc1cc(Nc2nccc(-c3cnn4nc(OC)ccc34)n2)cc(C(F)(F)F)c1` , Fibroblast, Population Hoechst High Intensity Objects (%) recorded as 51

Case `Cc1c[nH]c2nccc(Oc3c(F)cc(Nc4cc(Cl)nc(N)n4)cc3F)c12` , Fibroblast, Population Hoechst High Intensity Objects (%) recorded as 20

Values compiled from ChEMBL document CHEMBL4689842.
